// provenance: patent US11185521B2

- Tested on: RAW264.7 cells
- MEASUREMENT_NOTES: IL-12 production in LPS-stimulated RAW264.7 cells (IL-12 ELISA)
- Assay type: cell-based, murine
- CONDITION_SUMMARY: 100 ng/mL LPS, 21 hours, compound concentration 0.50 mM
Measured IL12, listed per entry.

| MOLECULE | UNIT_ABBREVIATION | IL12 |
| --- | --- | --- |
| CCCCc1cccc(CCC(=O)[O-])c1.[Na+] [Compound III] | pg/mL | 62.28 |
| CCCC/C=C/c1cccc(CC(=O)[O-])c1.[Na+] [Compound V] | pg/mL | 52.5 |
| CCCCCc1cc(CC(=O)[O-])ccc1F.[Na+] [Compound XII] | pg/mL | 419.6 |
| CCCCCc1cc(F)cc(CC(=O)[O-])c1.[Na+] [Compound X] | pg/mL | 80 |

###

- Tested on: RAW264.7 cells
- MEASUREMENT_NOTES: IL-12 production in LPS-stimulated RAW264.7 cells (IL-12 ELISA)
- Format: cell-based, murine
- CONDITION_SUMMARY: 100 ng/mL LPS, 21 hours, compound concentration 0.50 mM
QUANTITY_MEASURED: log10 IL12 (log10 of the value in pg/mL)

| COMPOUND | EXPERIMENTAL_TARGET | READOUT_NUMBER |
| --- | --- | --- |
| CCCCCc1cccc(CC(=O)[O-])c1.[Na+] [Compound I] | RAW264.7 cells | 1.74 |
| CCCCCc1cccc(CCC(=O)[O-])c1.[Na+] [Compound II] | RAW264.7 cells | 2.54 |
| CCCCCc1cc(O)cc(CC(=O)[O-])c1.[Na+] [Compound VII] | RAW264.7 cells | 1.22 |
| CCCCCc1cc(CC(=O)[O-])ccc1O.[Na+] [Compound VIII] | RAW264.7 cells | 1.30 |
| CCC/C=C/c1cccc(CC(=O)[O-])c1.[Na+] [Compound IV] | RAW264.7 cells | 1.29 |
